- run description: Cytotoxicity against mouse RAW264.7 cells assessed as cell survival at < 32 uM after 24 hrs by MTT assay
- Format: cell-based
- test conditions: read-out: Activity
Where a SMILES comes first, the peptide text is derived from it.
recorded endpoint: viability at 24 h

Need viability at 24 h, item CC(C)[C@H](NC(=O)[C@H](CCCNC(=N)N)NC(=O)[C@H](Cc1c[nH]c2ccccc12)NC(=O)[C@H](CCCNC(=N)N)NC(=O)[C@@H](NC(=O)[C@H](CCCCN)NC(=O)[C@H](Cc1c[nH]c2ccccc12)NC(=O)[C@H](CCCNC(=N)N)NC(=O)[C@@H](NC(=O)[C@H](CCCNC(=N)N)NC(=O)[C@@H](N)Cc1c[nH]c2ccccc12)C(C)C)C(C)C)C(=O)N[C@@H](CCCCN)C(N)=O (H-WRVRWKVRWRVK-NH2)
> 90%

---

- Test system: Escherichia coli
- run description: Antibacterial activity against Escherichia coli UB1005 incubated for 18 to 24 hrs by broth microdilution method
- Format: functional
Where a SMILES comes first, the peptide text is derived from it.
recorded endpoint: MIC
Mention the unit after the number when you answer.

CC(C)C[C@H](NC(=O)[C@H](Cc1c[nH]c2ccccc12)NC(=O)[C@H](CCCCN)NC(=O)[C@H](CCCNC(=N)N)NC(=O)[C@@H](NC(=O)[C@H](Cc1c[nH]c2ccccc12)NC(=O)[C@H](CCCCN)NC(=O)[C@H](CCCNC(=N)N)NC(=O)[C@H](CC(C)C)NC(=O)[C@H](Cc1c[nH]c2ccccc12)NC(=O)[C@@H](N)CCCNC(=N)N)[C@@H](C)O)C(=O)N[C@@H](CCCCN)C(N)=O (H-RWLRKWTRKWLK-NH2) :: 4 µM
CC[C@H]1OC(=O)[C@H](C)[C@@H](O[C@H]2C[C@@](C)(OC)[C@@H](O)[C@H](C)O2)[C@H](C)[C@@H](O[C@@H]2O[C@H](C)C[C@H](N(C)C)[C@H]2O)[C@](C)(O)C[C@@H](C)C(=O)[C@H](C)[C@@H](O)[C@]1(C)O :: 32 µM
CC(C)[C@H](NC(=O)[C@H](CCCNC(=N)N)NC(=O)[C@H](Cc1c[nH]c2ccccc12)NC(=O)[C@H](CCCNC(=N)N)NC(=O)[C@@H](NC(=O)[C@H](CCCCN)NC(=O)[C@H](Cc1c[nH]c2ccccc12)NC(=O)[C@H](CCCNC(=N)N)NC(=O)[C@@H](NC(=O)[C@H](CCCNC(=N)N)NC(=O)[C@@H](N)Cc1c[nH]c2ccccc12)C(C)C)C(C)C)C(=O)N[C@@H](CCCCN)C(N)=O (H-WRVRWKVRWRVK-NH2) :: 2 µM
CC[C@H](C)[C@H](NC(=O)[C@H](CCCNC(=N)N)NC(=O)[C@H](Cc1c[nH]c2ccccc12)NC(=O)[C@H](CCCNC(=N)N)NC(=O)[C@@H](NC(=O)[C@H](CCCCN)NC(=O)[C@H](Cc1c[nH]c2ccccc12)NC(=O)[C@H](CCCNC(=N)N)NC(=O)[C@@H](NC(=O)[C@H](CCCNC(=N)N)NC(=O)[C@@H](N)Cc1c[nH]c2ccccc12)[C@@H](C)CC)[C@@H](C)O)C(=O)N[C@@H](CCCCN)C(N)=O (H-WRIRWKTRWRIK-NH2) :: 2 µM
CC(C)[C@H](NC(=O)[C@H](CCCNC(=N)N)NC(=O)[C@H](Cc1c[nH]c2ccccc12)NC(=O)[C@H](CCCNC(=N)N)NC(=O)[C@@H](NC(=O)[C@H](CCCNC(=N)N)NC(=O)[C@H](Cc1c[nH]c2ccccc12)NC(=O)[C@H](CCCNC(=N)N)NC(=O)[C@@H](NC(=O)[C@H](CCCNC(=N)N)NC(=O)[C@@H](N)Cc1c[nH]c2ccccc12)C(C)C)C(C)C)C(=O)N[C@@H](CCCNC(=N)N)C(N)=O (H-WRVRWRVRWRVR-NH2) :: 2 µM
CC[C@H](C)[C@H](NC(=O)[C@H](CCCCN)NC(=O)[C@H](Cc1c[nH]c2ccccc12)NC(=O)[C@H](CCCCN)NC(=O)[C@@H](NC(=O)[C@H](CCCCN)NC(=O)[C@H](Cc1c[nH]c2ccccc12)NC(=O)[C@H](CCCCN)NC(=O)[C@@H](NC(=O)[C@H](CCCCN)NC(=O)[C@@H](N)Cc1c[nH]c2ccccc12)[C@@H](C)CC)[C@@H](C)CC)C(=O)N[C@@H](CCCCN)C(N)=O (H-WKIKWKIKWKIK-NH2) :: 2 µM
CC(C)C[C@H](NC(=O)[C@H](CCCNC(=N)N)NC(=O)[C@H](CCCCN)NC(=O)[C@H](CCCNC(=N)N)NC(=O)[C@@H](NC(=O)[C@H](Cc1c[nH]c2ccccc12)NC(=O)[C@H](CCCCN)NC(=O)[C@H](CCCNC(=N)N)NC(=O)[C@H](CC(C)C)NC(=O)[C@H](Cc1c[nH]c2ccccc12)NC(=O)[C@@H](N)CCCNC(=N)N)[C@@H](C)O)C(=O)N[C@@H](CCCCN)C(N)=O (H-RWLRKWTRKRLK-NH2) :: 16 µM
CC(C)C[C@H](NC(=O)[C@H](CCCNC(=N)N)NC(=O)[C@H](Cc1c[nH]c2ccccc12)NC(=O)[C@H](CCCNC(=N)N)NC(=O)[C@@H](NC(=O)[C@H](CCCNC(=N)N)NC(=O)[C@H](Cc1c[nH]c2ccccc12)NC(=O)[C@H](CCCNC(=N)N)NC(=O)[C@H](CC(C)C)NC(=O)[C@H](CCCNC(=N)N)NC(=O)[C@@H](N)Cc1c[nH]c2ccccc12)[C@@H](C)O)C(=O)N[C@@H](CCCNC(=N)N)C(N)=O (H-WRLRWRTRWRLR-NH2) :: 4 µM

Value lookup for MIC; key = C[C@@H](O)[C@H](NC(=O)[C@H](CCCCN)NC(=O)[C@H](Cc1c[nH]c2ccccc12)NC(=O)[C@H](CCCNC(=N)N)NC(=O)[C@H](Cc1ccccc1)NC(=O)[C@H](CCCNC(=N)N)NC(=O)[C@@H](N)Cc1c[nH]c2ccccc12)C(=O)N[C@@H](CCCNC(=N)N)C(=O)N[C@@H](Cc1c[nH]c2ccccc12)C(=O)N[C@@H](CCCNC(=N)N)C(=O)N[C@@H](Cc1ccccc1)C(=O)N[C@@H](CCCCN)C(N)=O (H-WRFRWKTRWRFK-NH2)
4 µM

What about CC(C)C[C@H](NC(=O)[C@H](CCCNC(=N)N)NC(=O)[C@H](Cc1c[nH]c2ccccc12)NC(=O)[C@H](CCCNC(=N)N)NC(=O)[C@@H](NC(=O)[C@H](CCCCN)NC(=O)[C@H](Cc1c[nH]c2ccccc12)NC(=O)[C@H](CCCNC(=N)N)NC(=O)[C@H](CC(C)C)NC(=O)[C@H](Cc1c[nH]c2ccccc12)NC(=O)[C@@H](N)CCCNC(=N)N)[C@@H](C)O)C(=O)N[C@@H](CCCCN)C(N)=O (H-RWLRWKTRWRLK-NH2) ?
4 µM

---

- run description: Therapeutic index, ratio of MHC for human RBC to geometric mean of peptide MIC for Escherichia coli ATCC 25922
- Assay type: toxicity
- test conditions: pooled result: one value given for 6 cell lines, strains, targets or settings, read-out: TI
Where a SMILES comes first, the peptide text is derived from it.
Examples of compounds with documented selectivity ratio follow.
Just the number.

Before answering, review these 3 worked examples.
C[C@@H](O)[C@H](NC(=O)[C@H](CCCCN)NC(=O)[C@H](Cc1c[nH]c2ccccc12)NC(=O)[C@H](CCCNC(=N)N)NC(=O)[C@H](Cc1ccccc1)NC(=O)[C@H](CCCNC(=N)N)NC(=O)[C@@H](N)Cc1c[nH]c2ccccc12)C(=O)N[C@@H](CCCNC(=N)N)C(=O)N[C@@H](Cc1c[nH]c2ccccc12)C(=O)N[C@@H](CCCNC(=N)N)C(=O)N[C@@H](Cc1ccccc1)C(=O)N[C@@H](CCCCN)C(N)=O (H-WRFRWKTRWRFK-NH2) :: 102
C[C@@H](O)[C@H](NC(=O)[C@H](CCCNC(=N)N)NC(=O)[C@H](Cc1c[nH]c2ccccc12)NC(=O)[C@H](CCCNC(=N)N)NC(=O)[C@@H](NC(=O)[C@H](CCCNC(=N)N)NC(=O)[C@H](Cc1c[nH]c2ccccc12)NC(=O)[C@H](CCCNC(=N)N)NC(=O)[C@@H](NC(=O)[C@H](CCCNC(=N)N)NC(=O)[C@@H](N)Cc1c[nH]c2ccccc12)[C@@H](C)O)[C@@H](C)O)C(=O)N[C@@H](CCCNC(=N)N)C(N)=O (H-WRTRWRTRWRTR-NH2) :: 50.8
N=C(N)NCCC[C@H](NC(=O)[C@H](Cc1ccccc1)NC(=O)[C@H](CCCNC(=N)N)NC(=O)[C@H](Cc1c[nH]c2ccccc12)NC(=O)[C@H](CCCNC(=N)N)NC(=O)[C@H](Cc1ccccc1)NC(=O)[C@H](CCCNC(=N)N)NC(=O)[C@H](Cc1c[nH]c2ccccc12)NC(=O)[C@H](CCCNC(=N)N)NC(=O)[C@H](Cc1ccccc1)NC(=O)[C@H](CCCNC(=N)N)NC(=O)[C@@H](N)Cc1c[nH]c2ccccc12)C(N)=O (H-WRFRWRFRWRFR-NH2) :: 28.6

What value of selectivity ratio has been reported for the following compound? CC(C)C[C@H](NC(=O)[C@H](Cc1c[nH]c2ccccc12)NC(=O)[C@H](CCCCN)NC(=O)[C@H](CCCNC(=N)N)NC(=O)[C@@H](NC(=O)[C@H](Cc1c[nH]c2ccccc12)NC(=O)[C@H](CCCCN)NC(=O)[C@H](CCCNC(=N)N)NC(=O)[C@H](CC(C)C)NC(=O)[C@H](Cc1c[nH]c2ccccc12)NC(=O)[C@@H](N)CCCNC(=N)N)[C@@H](C)O)C(=O)N[C@@H](CCCCN)C(N)=O (H-RWLRKWTRKWLK-NH2)
32

Also CC(C)C[C@H](NC(=O)[C@H](CCCNC(=N)N)NC(=O)[C@H](Cc1c[nH]c2ccccc12)NC(=O)[C@H](CCCNC(=N)N)NC(=O)[C@@H](NC(=O)[C@H](Cc1c[nH]c2ccccc12)NC(=O)[C@H](Cc1c[nH]c2ccccc12)NC(=O)[C@H](CCCNC(=N)N)NC(=O)[C@H](CC(C)C)NC(=O)[C@H](Cc1c[nH]c2ccccc12)NC(=O)[C@@H](N)CCCNC(=N)N)[C@@H](C)O)C(=O)N[C@@H](CCCCN)C(N)=O (H-RWLRWWTRWRLK-NH2) ?
40.4
